Where do the numbers come from? From the RNAGym collection of RNA variant scans (doi:10.1073/pnas.2313332121).

B1: TPR t1 (parent)
chain: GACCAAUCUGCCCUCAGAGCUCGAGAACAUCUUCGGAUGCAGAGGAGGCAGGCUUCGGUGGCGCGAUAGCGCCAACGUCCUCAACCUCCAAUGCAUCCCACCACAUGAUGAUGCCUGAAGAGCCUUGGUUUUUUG

- Variants of: B1
- Assay Name: polymerase ribozyme fitness, log enrichment relative to wild type (log ratio); higher = more active; in vitro selection for triplet polymerase activity
Parameter: polymerase ribozyme fitness (log ratio)
Answers are plain numbers.

{"columns": ["Sequence Chain", "Observed"],
 "data": [
  ["GACCAAUCUGCCCUCAGAGCUCGAGAACAUCUUCGGAUGCAGAGGAAGCAGGCUUCGGUCGCGCGAUAUCGCCAACGUCCUCAACCUCCAAUGCAUCCCACCACAUGAUGAUGCCUGAUGAGCCUUGGUUUUUUG", -2.55],
  ["GACCAAUCUGCCCUCAGAGCUGGAGAACAUCUUCGGAGGCAGAGGAGGCAGGCUUCGGUGGCGCGAUAGCGCCAACGUCCUCAACCUCCAAUGCAUCCCACCACAUGAUGAUGCCUGAAGAGCCUUGGUUUUUUG", -4.45],
  ["GACCAAUCGGCCCUCAGAGCUCGAGAACAUCUUCGGAUGCAGAGGAGGCAGGCUUCGGUGUCGCGAUAGCGCCAACGUCCUCAACCUCCAAUGCAUCCCACCACAUGAUGAUGCCUAAAGAGCCUUGGUUUUUUG", 1.58],
  ["GACCAAUCUGCCCUCAGAGCUCGAGAACAUCUUCGGAUGCAGAGGAGGCAGGCUUCGGUGGUGCGAUAGCGCCAACGUCCUCAACCUCCAAUGCAUCCCACCACAUGAUGAUGCCUGAAGAGCCGUCGUUUUUUG", -1.39],
  ["GACCAAACUGCCCUCAGAGCUCGAGAACAUCUUCGGUUGCAGAGGAGGCAGGCUUCGGUGGCGCGAUAGCGCCAACGACCUCAACCUCCAAUGCAUCCCACCACAUGAUGAUGCCUGAAGAGCCUUGGUUUUUUG", 0.116]
]}

Please supply polymerase ribozyme fitness (log ratio) for each of the following items, keeping them in order.
1. GACCAAUCUGCCCUCAGAGCACGAGAACAUCUUCGGAUGCAGAGGAGGCAGGGGUCGGUGGCGCGAUAGCGCCAACGUCCUCAACCACCAAUGCAUCCCACCACAUGAUGAUGCCUGAAGAGCCUUGGUUUUUUG
2. GACCAAUCUGCCCUCAGAGCUCGAGAACAUCUUCGGAUGCAGAGGAGGCAGGCUUCGGUGGCGCGAUAUCGACAACGUCCUCAACCUCCAAUGCAUCCCACCACAUGAUGAUGCCUGAAGAGCCUUGGUUUUUUG
3. GACCAAUCUGCCCUCAGAGCUCGAGAACAUCUUCGGAUGCAGAGGUGGCAGGCUUCGGUGGCGCGAUAGCCCUAACGUCCUCAACCUCCAAUGCAUCCCACCACAUGAUGAUGCCUGAAGAGCCUUGGUUUUUUG
4. GACCAAUCUGCCCGCAGAGCUCGAGAACAUCUUCGGAUGCAGAGGAGGCAGGCUUCGGUGGCGUGAUAGCGCCAACGUCCUCAACCUCCAAUGCAUCUCACCACAUGAUGAUGCCUGAAGAGCCUUGGUUUUUUG
5. GACCAAUCUGCCCUCAGAGCUCGAGAACAUCUUCGGAUGCAGAGGAGGCAGGAUUCGGUGGCGCGAUAGCGCCAACGUCCUCAACCUCCAAUGCAUCCCACCACAUGAUGAUGCCUAAAGAGCCUUGGUUUUUUG
6. GACCAAUCUGCCGUCAGAGCUCGAGAACAUCUUCGGAUGCAGAGGAGGCAGUCUUCGGUGGCGCGAUAGCGCCAACGUCCUCAACCUCCAAUGCAUCCCACCACAUGAUGAUGCCUGAAGAGCCUUGGUUUUUUG

[A]
[-4.55, -2.5, -3.63, -4.29, 0.856, -3.2]

Please supply polymerase ribozyme fitness (log ratio) for each of the following items, keeping them in order.
1. GACCAAUCUGCCCUCAGAGCUCGAGAACAUCUUCGGAUGCAGAGGAGGCAGGCUUCGGUGGCGCGAUAGCGCUAACGUCCUCAACCUCCAAUGCAUCCCACCACAUGAUGAUGCCUAAAGAGCCUUGGUUUUUUG
2. GACCAAUCUGCCAUCAGAGCUCGAGAACAUCUUCGGAUGCAGAGGAGGCAGGCUUCGGUGGCGCGAUAGCACCAACGUCCUCAACCUCCAAUGCAUCCCACCACAUGAUGAUGCCUGAAGAGCCUUGGUUUUUUG
3. GACCAAUCUGCCCUCAGAGCUCGAGAACAUCUUCGGAUGCAGAGGAGGCAGGCUUCGGUGGCGCGAUAGCGCCAACGUCCUCAACCUCCAAUGCUUCCCACCACAUGAUGAUGCCUGAUGAGCCAUUGUUUUUUG
4. GACCACUCUGCACUCAGAGCUCGAGAACAUCUUCGGAUGCAGAGGAGGCAGGCGUCGGUGGCGCGAUAGCGCCAACGUCCUCAACCUCCAAUGCAUCCCACCACAUGAUGAUGCCUGAAGAGCCUUGGUUUUUUG
5. GACCAAUCUGCCCUCAGAGCUCGAGAUCAUCUUCGGAUGCAGAGGAGGCAGGCUUCGGUGGCGCGAUAGCGCCAACGUCCUCAACCUCCUAUGCAUCCCACCACAUGAUGAUGCCUGAAGAGCCUUGGUUUUUUG
6. GACCAAUCUGCCAUCAGAGCUCGAGAACAUCUUCGCAUGCAGAGGAGGCAGGCUUCGGUGGCGCGAUACCGCCAACGUCCUCAACCUCCAAUGCAUCCCACCACAUGAUGAUGCCUGAAGAGCCUUGGUUUUUUG

[A]
1: 0.149; 2: -0.843; 3: -2.7; 4: -1.08; 5: -5.37; 6: -2.94

Please supply polymerase ribozyme fitness (log ratio) for each of the following items, keeping them in order.
1. GAACAAUCUGCCCUCAGAGCUCGAGAACAUCUUCGGAUGCAAAGGAGGCAGGCUUCCGUGGCGCGAUAGCGCCAACGUCCUCAACCUCCAAUGCAUCCCACCACAUUAUGAUGUCUGAAGAGCCUUGUUCUUUUG
2. GACCAAUCUGCCCUCAGAGCUCGAGAACAUCUUCGGAUGCAGAGGAGGCAGGCCUCGGUGGCGCGAUAGCGCCAACGUCCUCAACCUCCAAUGCAUCCCACCACAUGAUGAUGCUUGAAGAGCCUUCGUUUUUUG
3. GACCAAUCUGCCCUCAGAGCUCGAGAACAUCUUCGGAUGCUGAGGAGGCAGGCUUCGGUGGCGCGAUAGCGCCAACGUCCUCAACCUCCAAUGCAUCCCACCAAAUGAUGAUGCCUGAAGAGCCUUGGUUUUUUG
4. GACCAAUCUGCCCUCAGAGCUCGAGAACAUCUUCGGAUGCAGAGGAGGCAGGCUUCGGUGGCGCGAUAGCGCCAACGUCCUCAACCUACAAUGCACCCCACCACAUGAUGAUGCCUGAAGAGCCUUGGUUUUUUG
5. GACCAAUCUGCCCUCAGAGCUCGAGAACAUCUUCGGAUGCAGAGGAGGCAGGCUUCGGUGGUGCGAUAGCGCCAACGUCCUCAACCUCUAAUGCAUCCCACCACAUGAUGAUGCCUGAAGAGCCUUGGUUUUUUG
6. GACCAAUCUGCCCUCAGAGCUCGAGAACAUCUUCGGAUGCAGAGGAGGCAGGCUUCGGUGGCUCGAUAGCGCCAACGUCCUCAACCUCCAAUGCAUCCCACCACAUGAUGAUGACUGAAGAGCCUUGGUUUUUUG

[A]
[-4.37, -1.97, -3.22, -0.897, -0.519, -3.04]

Please supply polymerase ribozyme fitness (log ratio) for each of the following items, keeping them in order.
1. GACCAAUCUGCCCUCAGAGCUCGAGAACAUCUUCGGAUGCAGAGGAGGCAGGCUUCGGUGGCGCGAUAGCGCCAACGUCCUCAACUUCCAAUGCAUCCCACCACAUGAUGGUGCCUGAAGAGACUUAGUUUUUUG
2. GACCAAUCUGCCCUCAGAGCUCGAGAACAUCUUCGGAUGCAGAGGAGGCAGGCUUCGGUGGCGCGAUAGCGCCAACGUCCUCAAACUCCAAUGCAUCCCACCACAUGAUGAUGCCUGAAGAACCUUGGUUUUUUG
3. GACCAAUCUGGCCUCAGAGCUCGAGAACAUCUUCGGAUGCAGAGGAGGCAGACAUCGGUGGCGCGAUAGCGCCAACGUCCUCAACCUCCAAUGCAUCACACCACAUGAUGAUGCCUGAAGAGCCUUGGUUUUUUG
4. GACCAAUCUGCCCUCAGUGCUCGAGAACAUCUUCGGAUACAGAGGAGGCAGGCAUCGGUGGCGCGAUAGAGCCAACGUCCUCAACCUCCAAUGCAUCCCACCACAUGAUGAUGCCUGAAGAGCUUUAGUUUUUUG
5. GACCAAUCGGCCCUCAGAGCUCGAGAACAUCUUCGGAUGCAGAGGAGGCAGGCUUCGGUGGCGCGAUAGCGCCAACGUCCUCAACCUCCAAUGCAUCCAACCACAUGAUGAUGCCUGAAGAGCCUUGGUUUUUUG
6. GACCAAUCUGCCCUCAGAGCUCGAGAACAUCUUCGGAUGCAGAGGAGGCAGGUUUCGGUGGCGCGAUAGCACAAACCUCUUCAACCUCCAAUGCAUCCCACCACAUGAUGAUGCCUGAAGAGCCUUGGUUUUUUG

[A]
[-2.33, -1.14, -5.44, -4.66, -5.82, -6.09]

Please supply polymerase ribozyme fitness (log ratio) for each of the following items, keeping them in order.
1. GACCAAUCUGCCCUGAGAGCUCGAGAACGUCUUCGGAUGCAGAGGAGGCAGGCUUCGGUGGCGUGAUAGCGCCAAGGUCCUCAACCUCCAAUGCAUCCUACCACAUGAUGAAGCCUGAAGAGCCUUGGUUUUUUG
2. GACCAAUCUGCCCUCAGAGCUCGAGAACAUCUUCGGAUGCAGAGGAGGCAGGCUUCGGUGGCGCGAUAGCUCCAACGUCCUCAACCUCCAAUGUAUCCCACCACAUGAUGAUGCCUCAAGAGCCUUGGUUUUUUG
3. GACCAAUCUGCCCUCAGAGCUCGAGAACAUCUUCGGAUGCAGAGGAGGCAGGCUUCGGUGACGCGAUAGCGCCAACGUCCUCAACCUCCAAUGCAUUCCACCACAUGAUGAUGCCUGAAGAGCCUUGGUUUUUUG
4. GACCAAUCUGUCCUCAGAGCUCGAGAACAUCUUCGGAUGGAGAGGAGGAAGGCUGCGGUGACGCGAUAGCGCCAACGUCCUCAACCUCCAAUGCAUCCCACCACAUGAUGAUGCCUGAAGAGCCUUGGUUUUUUG

[A]
-6.38
-3.99
-0.149
-1.51

Please supply polymerase ribozyme fitness (log ratio) for each of the following items, keeping them in order.
1. GACCAAUCUGCCCUUAGAGCUCGAGAACAUCUUCGGAUGCGGAGGAGGCAGGCUUCGGUGGCGCGAUAGCGCCAACGUCCUCAACCUCCAAUGCAUCCCACCACAUGAUGAUGCCUGAAGAGCCUUGGUUUUUUG
2. GACCAAUCUGCCCUCAGAGCUAGAGAGCAUCUUCGGAUGCAGAGGAGGCAGGCUUCGGUGGCGCGAUAGCGCCAACGUCCUCAAGCUCCAAUGCAUCCCCUCACAUGAUGAUGCCUGAACAGCCUUAGUUUUUUG
3. GACCAAUCUGCCCUCAGAGCUCGAGAAAAUCUUCGGAUGCAGAGGAGGCAGGCUUCGGUGGCGCGAUAGCGCCAACGUCCUCAACCUCCAAUGCAUCCCACCACAUGAUGAUGCCUGAAGAGCCUUGGUUUUUUU
4. GACCAAUCUGCCCUCAGAGCACGAGAACAUCUUCGGAUGCAGAGGAGGCAGGCUUCGGUUGCGCGAUAGCGCCAACGUCCUCAACCUCCAAUGCAUCCCACCACAUGAUGAUGCCUGAAGAGCCUUGGUUUUUUG
5. GACCAAUCUGCCCUCAGAGCGCGAGAACAUCUUCGGAUGCAGAGGAAGCAGGCUUCGGUGGCGCGAUAGCGCCAACGUCCUCAACCUCCAAUGCAUCCCACCACAUGAUGAUGACUGAAGAGGCAUGGUUUUUUG
6. GACCAAUCUGCCCUCAGAGCUCGAAAACAUCUUCGGAUGCAGAGGAGGCAGGCUUCGGUGGCGCGAUAGCACCAACGUGCUCAACCUCCAAUGCAUCCCACCACAUGAUGAUGCUUGAAGAGCCUUGGUUUUUUG
7. GACCAAUCUGCCCUCAGAGCUCGAGAACGUCUUCGGAUGCAGAGGAGGCAGGCUUCGGUGGCGCGAUAGCGCCAACGUGCUCAACCUCCAAUGCAUCCCACCACAUGAUGAUGCCUGAAGAGCCUUGGUUUUUUG

[A]
-1.83
-6.82
-4.58
-0.289
-1.52
-7.59
-2.5

Please supply polymerase ribozyme fitness (log ratio) for each of the following items, keeping them in order.
1. GACCAAUCUGCCCUCAGAGCUCGAGAACAUCUUCGGAUGCACAGGAGGCAGGCUUCGGUGGCGUGAUAGCGCCAACGUCCUCAACCUCCAAUGCAUCCCACCACAUGAUGAUGCCUGAAGAGCCUUGGUUUUUUG
2. GACCAAUCUGCCCUCAGAGCUCGAGAACAUCUUCGGAUUCAGAGGAGGCAGGCUUCGGUGGCGCGAUAGCGCCAACGUCCUCAACCUCCAACGCAUCCCACCACAUGAUGAUGCCUGAAGAGCCUUGGUUUUUUG

[A]
[-0.982, -1.97]

Please supply polymerase ribozyme fitness (log ratio) for each of the following items, keeping them in order.
1. GACCAAUCUGCCCUCAGAGCUCGAGAAGAUCUUGGGAUGCAUAGGGGGCAGGCUUAGGUGGCGCGAUAGCGCCAACGUCCUCAACCUCCAAUGCAUCCCACCAAAUGAUGGUGCCUGAAGAGCCUUGGUUGUUUG
2. GACCAAUCUGCCCUCAGAGCUCGAGAACAUCUUCGGAUGCAGAGGAGGCAGGCUUCGGUGGCGCGAUAGCCCCAACGUCCUCAAUCUCCAACGCAUCCCACCACAUGAUGAUGCCUGAAGAGCCUUGGUUUUUUG

[A]
-5.4
-4.52

Please supply polymerase ribozyme fitness (log ratio) for each of the following items, keeping them in order.
1. GACCAAUCUGCCCUCAGAGCUCGAGAACAUCUUCGGAUGCAGAGGAGGCAGGCUUCGGUGGCGCGAUAGCGCCAACGUCCUCAACCUCCAAUGCAUCCCACCACAUGAUGAUGUCUGAAGAGCCUUGGGUUUUUG
2. GACCAAUCUGCCCUCAGAGCUCGAGAACAUCUUCGGAUGCAGAGGAGGCAGGCUUCGGUGGCGCGAUAGCGCCAACGUCUUCAACCUCCAAUGCAUCCCACCACAUGAUGAUGCCUGAACAGCCUUGGUUUUUUG

[A]
-4.52
0.704
